The measurements presented in this section are drawn from patent US20060014826A1.

MEASUREMENT_TYPE: melting point

Completed entries (count: 6):
CC1(C)CC(=O)C(C(=O)Nc2cccc(C(F)(F)F)c2)C(=O)O1 (stereo not shown) [Example 21] : 149.6 to 150.1 °C
CC1(C)CC(=O)C(C(=O)Nc2cc(F)cc(F)c2)C(=O)C1F (stereo not shown) [Example 29] : 131 to 132 °C
CC1(C)CC(=O)C(C(=S)Nc2ccc(Cl)c(C(F)(F)F)c2)C(=O)C1 [Example 4] : 101 to 102 °C
CCC1(C)CC(=O)C(C(=O)Nc2cc(C(F)(F)F)cc(C(F)(F)F)c2)C(=O)C1 (stereo not shown) [Example 18] : 72 to 73 °C
CC1(C)CC(=O)C(C(=O)Nc2cccc(Cl)c2)C(=O)C1 [Example 1] : 89 to 91 °C
CC1(C)CC(=O)C(C(=O)Nc2ccc(C(F)(F)F)cc2)C(=O)O1 (stereo not shown) [Example 20] : 175.9 to 176.4 °C

For the molecule CC1(C)CC(=O)C(C(=O)Nc2cccc([N+](=O)[O-])c2)C(=O)O1 (stereo not shown) [Example 22] , give its reported melting point.
138.4 to 139.6 °C

---

A collection of molecules and their measured melting point

CC1(C)CC(=O)C(C(=S)Nc2ccc(Cl)c(Cl)c2)C(=O)C1 : 113 to 116 °C
CC(C)C1CC(=O)C(C(=O)Nc2ccc(Cl)c(Cl)c2)C(=O)C1 (centres unmarked) : 138 °C
CCC1(C)CC(=O)C(C(=O)Nc2cccc(C(F)(F)F)c2)C(=O)C1 (centres unmarked) : 81 to 82 °C

For the molecule CCC1(C)CC(=O)C(C(=O)Nc2ccc(Cl)c(C(F)(F)F)c2)C(=O)C1 (centres unmarked) , give its reported melting point.
87 to 88 °C

For the molecule CCC1(C)CC(=O)C(C(=O)Nc2ccc(C(F)(F)F)cc2)C(=O)C1 (centres unmarked) , give its reported melting point.
99 to 100 °C

---

A collection of molecules and their measured ED50
System: seizures induced by administration of pentylenetetrazole (PTZ)
Assay: Inhibiting PTZ induced seizures
Format: in vivo
Conditions: Mus musculus; adult mice, i.p. pretreatment 30 min before PTZ 85 mg/kg s.c., 30 minute test period; read-out: ED50, Dose Range
Procedure: Compounds useful in this invention were also examined for their anticonvulsant activity in vivo by assessing their ability to inhibit the seizures induced by administration of pentylenetetrazole (PTZ). Adult mice were pretreated intraperitoneally with the test compound. Thirty minutes later these animals were challenged with pentylenetetrazole (85 mg/kg, s.c.) and observed for onset of seizures during a 30 minute test period.
Answer format: numeric, mg/kg implied, no suffix.

Completed entries (count: 3):
CC1(C)CC(=O)C(C(=O)Nc2cccc(C(F)(F)F)c2)C(=O)C1 [Example 8] : 32
CC1(C)CC(=O)C(C(=O)Nc2cccc(Cl)c2)C(=O)C1 [Example 1] : 30
CC1(C)CC(=O)C(C(=O)Nc2cc(C(F)(F)F)cc(C(F)(F)F)c2)C(=O)C1 [Example 9] : 55

In the following, a different molecule is considered.
For the molecule CC1(C)CC(=O)C(C(=O)Nc2ccc(Cl)c(Cl)c2)C(=O)C1 [Example 2] , give its reported ED50.
50

---

Target: human Kv1.1/Kvβ1 potassium ion channel complex (Homo sapiens, UniProt Q09470+Q14722)
Construct: expressed in transfected cells; host or cells: Xenopus oocytes injected with cRNA
Sequence (Q09470 whole entry): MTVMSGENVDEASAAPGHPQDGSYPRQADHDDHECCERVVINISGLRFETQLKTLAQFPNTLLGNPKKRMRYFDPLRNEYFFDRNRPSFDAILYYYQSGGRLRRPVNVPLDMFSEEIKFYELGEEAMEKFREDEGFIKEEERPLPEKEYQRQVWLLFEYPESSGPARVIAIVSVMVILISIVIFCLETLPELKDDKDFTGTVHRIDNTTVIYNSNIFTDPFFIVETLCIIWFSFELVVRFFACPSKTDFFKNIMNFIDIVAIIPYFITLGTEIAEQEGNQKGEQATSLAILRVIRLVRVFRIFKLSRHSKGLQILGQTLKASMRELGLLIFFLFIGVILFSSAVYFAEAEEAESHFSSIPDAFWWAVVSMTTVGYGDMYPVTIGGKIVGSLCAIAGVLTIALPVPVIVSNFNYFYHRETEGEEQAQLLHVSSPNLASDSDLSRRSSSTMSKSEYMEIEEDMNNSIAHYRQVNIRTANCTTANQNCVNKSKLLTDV
Sequence (Q14722 whole entry): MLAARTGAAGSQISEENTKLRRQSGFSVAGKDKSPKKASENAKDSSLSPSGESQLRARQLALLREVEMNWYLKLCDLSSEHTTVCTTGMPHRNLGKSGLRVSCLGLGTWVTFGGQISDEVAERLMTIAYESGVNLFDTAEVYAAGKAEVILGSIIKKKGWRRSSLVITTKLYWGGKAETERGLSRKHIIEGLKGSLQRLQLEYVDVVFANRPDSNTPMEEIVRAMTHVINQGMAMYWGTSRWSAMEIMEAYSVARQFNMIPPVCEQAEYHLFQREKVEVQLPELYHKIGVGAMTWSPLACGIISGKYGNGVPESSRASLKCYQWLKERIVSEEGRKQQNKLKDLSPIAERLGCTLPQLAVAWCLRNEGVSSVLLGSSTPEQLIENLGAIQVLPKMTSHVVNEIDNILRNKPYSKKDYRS
Assay: Inhibiting the inactivation of Kv1.1/Kvβ1 potassium ion channel complex, voltage clamp current recordings in Xenopus oocytes
Type: cell-based
Conditions: 50 μm; relative to control oocytes without test compound; read-out: Percent Increase in Steady State Current (@ concentration shown in parentheses)
MEASUREMENT_TYPE: activation at 50 µM (%)
Answer format: numeric, % implied, no suffix.

Provide activation at 50 µM, system human Kv1.1/Kvβ1 potassium ion channel complex (Homo sapiens, UniProt Q09470+Q14722), entry CC1(C)CC(=O)C(C(=O)Nc2ccc(C(F)(F)F)cc2)C(=O)C1F (stereo not shown)
191

Provide activation at 50 µM, system human Kv1.1/Kvβ1 potassium ion channel complex (Homo sapiens, UniProt Q09470+Q14722), entry CC1(C)COC(=O)C(C(=O)Nc2cccc(C(F)(F)F)c2)C1=O (stereo not shown)
5

Provide activation at 50 µM, system human Kv1.1/Kvβ1 potassium ion channel complex (Homo sapiens, UniProt Q09470+Q14722), entry CCC1(C)CC(=O)C(C(=O)Nc2cccc(C(F)(F)F)c2)C(=O)C1 (stereo not shown)
9

---

MEASUREMENT_TYPE: melting point

Completed entries (count: 3):
O=C1CSCC(=O)C1C(=O)Nc1ccc(Cl)c(C(F)(F)F)c1 : 108 to 110 °C
CC1(C)COC(=O)C(C(=O)Nc2ccc(Cl)c(C(F)(F)F)c2)C1=O (stereo not drawn) : 144 to 145 °C
CC1(C)CC(=O)C(C(=O)Nc2ccc(C(F)(F)F)cc2)C(=O)C1F (stereo not drawn) : 129 °C

For the compound CC1(C)CC(=O)C(C(=O)Nc2ccc(Cl)c(C(F)(F)F)c2)C(=O)O1 (stereo not drawn) , give its reported melting point.
156 to 156.4 °C

For the compound CCC1(C)CC(=O)C(C(=O)Nc2ccc(F)c(Cl)c2)C(=O)C1 (stereo not drawn) , give its reported melting point.
91 to 92 °C

For the compound CCC1(C)CC(=O)C(C(=O)Nc2ccc(Cl)c(Cl)c2)C(=O)C1 (stereo not drawn) , give its reported melting point.
74 to 75 °C

For the compound CC1(C)CC(=O)C(C(=O)Nc2cccc(C(F)(F)F)c2)C(=O)C1 , give its reported melting point.
116 to 117 °C

For the compound CC1(C)CC(=O)C(C(=O)Nc2ccc(Cl)c(Cl)c2)C(=O)O1 (stereo not drawn) , give its reported melting point.
212 to 215 °C

For the compound CC1(C)CC(=O)C(C(=O)Nc2ccc(Cl)c(Cl)c2)C(=O)C1 , give its reported melting point.
124 to 129 °C

---

Target: human Kv1.1/Kvβ1 potassium ion channel complex (Homo sapiens, UniProt Q09470+Q14722)
Construct: expressed in transfected cells; host or cells: Xenopus oocytes injected with cRNA
Assay: Inhibiting the inactivation of Kv1.1/Kvβ1 potassium ion channel complex, voltage clamp current recordings in Xenopus oocytes
Assay type: cell-based
Settings: 100 μm; relative to control oocytes without test compound; read-out: Percent Increase in Steady State Current (@ concentration shown in parentheses)
Please enter yes (1) where activation at 100 µM is greater than or equal to 60%, and no (0) where it is lower.

Observe how each entry below is paired with its result.
CC1(C)CC(=O)C(C(=O)Nc2cccc(Cl)c2)C(=O)C1 [Example 1] : no (0)
CC1(C)CC(=O)C(C(=O)Nc2ccccc2[N+](=O)[O-])C(=O)C1 [Example 6] : no (0)
CC1(C)CC(=O)C(C(=O)Nc2ccc([N+](=O)[O-])cc2)C(=O)C1 [Example 12] : yes (1)
CC1(C)CC(=O)C(C(=O)Nc2ccc(Cl)cc2C(F)(F)F)C(=O)C1 [Example 7] : no (0)
CC1(C)CC(=O)C(C(=O)Nc2cccc(C(F)(F)F)c2)C(=O)C1 [Example 8] : no (0)

Read the next record carefully.
For this compound, is measured activation at 100 µM 60% or higher? CC1(C)CC(=O)C(C(=O)Nc2ccc(Cl)c(Cl)c2)C(=O)C1 [Example 2]
yes (1)

---

Molecular target: human Kv1.1/Kvβ1 potassium ion channel complex (Homo sapiens, UniProt Q09470+Q14722)
Construct: expressed in transfected cells; host or cells: Xenopus oocytes injected with cRNA
Assay: Inhibiting the inactivation of Kv1.1/Kvβ1 potassium ion channel complex, voltage clamp current recordings in Xenopus oocytes
Assay type: cell-based
Conditions: 50 μm; relative to control oocytes without test compound; read-out: Percent Increase in Steady State Current (@ concentration shown in parentheses)
Please enter 1 (yes) where activation at 50 µM is greater than or equal to 20%, and 0 (no) where it is lower.

Observe how each entry below is paired with its result.
CC1(C)CC(=O)C(C(=O)Nc2ccc(Cl)c(C(F)(F)F)c2)C(=O)C1 [Example 5] : 0 (no)
O=C1CSCC(=O)C1C(=O)Nc1ccc(Cl)c(C(F)(F)F)c1 [Example 11] : 1 (yes)
CCC1(C)CC(=O)C(C(=O)Nc2cc(C(F)(F)F)cc(C(F)(F)F)c2)C(=O)C1 (stereo not shown) [Example 18] : 1 (yes)

For this molecule, is measured activation at 50 µM 20% or higher? CCC1(C)CC(=O)C(C(=O)Nc2ccc(C(F)(F)F)cc2)C(=O)C1 (stereo not shown) [Example 17]
1 (yes)

For this molecule, is measured activation at 50 µM 20% or higher? CCC1(C)CC(=O)C(C(=O)Nc2ccc(F)c(Cl)c2)C(=O)C1 (stereo not shown) [Example 16]
0 (no)

For this molecule, is measured activation at 50 µM 20% or higher? CCOC(=O)C1C(=O)C(C(=O)Nc2cccc(C(F)(F)F)c2)C(=O)C2CCCCC21 (stereo not shown) [Example 31]
1 (yes)

For this molecule, is measured activation at 50 µM 20% or higher? CC1(C)CC(=O)C(C(=O)Nc2ccc(Cl)c(C(F)(F)F)c2)C(=O)O1 (stereo not shown) [Example 19]
1 (yes)

For this molecule, is measured activation at 50 µM 20% or higher? CC1(c2ccccc2)CCC(=O)C(C(=O)Nc2cccc(C(F)(F)F)c2)C1=O (stereo not shown) [Example 32]
0 (no)

For this molecule, is measured activation at 50 µM 20% or higher? CC(C)C1CC(=O)C(C(=O)Nc2ccc(Cl)c(Cl)c2)C(=O)C1 (stereo not shown) [Example 10]
1 (yes)

For this molecule, is measured activation at 50 µM 20% or higher? CC1(C)CC(=O)C(C(=O)Nc2ccc(C(F)(F)F)cc2)C(=O)O1 (stereo not shown) [Example 20]
0 (no)

For this molecule, is measured activation at 50 µM 20% or higher? CC1(C)CC(=O)C(C(=O)Nc2cccc(C(F)(F)F)c2)C(=O)O1 (stereo not shown) [Example 21]
0 (no)

For this molecule, is measured activation at 50 µM 20% or higher? CC1(C)CC(=O)C(C(=O)Nc2cccc(C(F)(F)F)c2)C(=O)C1c1ccccc1 (stereo not shown) [Example 30]
0 (no)

For this molecule, is measured activation at 50 µM 20% or higher? CCC1(C)CC(=O)C(C(=O)Nc2ccc(Cl)c(Cl)c2)C(=O)C1 (stereo not shown) [Example 15]
1 (yes)

For this molecule, is measured activation at 50 µM 20% or higher? CC1(C)CC(=O)C(C(=O)Nc2cc(F)cc(F)c2)C(=O)C1F (stereo not shown) [Example 29]
1 (yes)

For this molecule, is measured activation at 50 µM 20% or higher? CC1(C)CC(=O)C(C(=O)Nc2ccc(Cl)c(Cl)c2)C(=O)O1 (stereo not shown) [Example 23]
1 (yes)

For this molecule, is measured activation at 50 µM 20% or higher? CCC1(C)CC(=O)C(C(=O)Nc2ccc(Cl)c(C(F)(F)F)c2)C(=O)C1 (stereo not shown) [Example 14]
1 (yes)

For this molecule, is measured activation at 50 µM 20% or higher? CC1(C)COC(=O)C(C(=O)Nc2ccc(C(F)(F)F)cc2)C1=O (stereo not shown) [Example 25]
0 (no)

For this molecule, is measured activation at 50 µM 20% or higher? CC1(C)CC(=O)C(C(=O)Nc2cccc([N+](=O)[O-])c2)C(=O)O1 (stereo not shown) [Example 22]
0 (no)

For this molecule, is measured activation at 50 µM 20% or higher? CC1(C)COC(=O)C(C(=O)Nc2ccc(Cl)c(C(F)(F)F)c2)C1=O (stereo not shown) [Example 26]
1 (yes)

For this molecule, is measured activation at 50 µM 20% or higher? CC1(C)CC(=O)C(C(=O)Nc2cc(Cl)cc(Cl)c2)C(=O)C1F (stereo not shown) [Example 28]
1 (yes)

For this molecule, is measured activation at 50 µM 20% or higher? COCC1C(=O)C(C(=O)Nc2cccc(C(F)(F)F)c2)C(=O)CC1(C)C (stereo not shown) [Example 33]
0 (no)
